Target: Ste12 (UniProt P13574)
Sequence (P13574 whole entry): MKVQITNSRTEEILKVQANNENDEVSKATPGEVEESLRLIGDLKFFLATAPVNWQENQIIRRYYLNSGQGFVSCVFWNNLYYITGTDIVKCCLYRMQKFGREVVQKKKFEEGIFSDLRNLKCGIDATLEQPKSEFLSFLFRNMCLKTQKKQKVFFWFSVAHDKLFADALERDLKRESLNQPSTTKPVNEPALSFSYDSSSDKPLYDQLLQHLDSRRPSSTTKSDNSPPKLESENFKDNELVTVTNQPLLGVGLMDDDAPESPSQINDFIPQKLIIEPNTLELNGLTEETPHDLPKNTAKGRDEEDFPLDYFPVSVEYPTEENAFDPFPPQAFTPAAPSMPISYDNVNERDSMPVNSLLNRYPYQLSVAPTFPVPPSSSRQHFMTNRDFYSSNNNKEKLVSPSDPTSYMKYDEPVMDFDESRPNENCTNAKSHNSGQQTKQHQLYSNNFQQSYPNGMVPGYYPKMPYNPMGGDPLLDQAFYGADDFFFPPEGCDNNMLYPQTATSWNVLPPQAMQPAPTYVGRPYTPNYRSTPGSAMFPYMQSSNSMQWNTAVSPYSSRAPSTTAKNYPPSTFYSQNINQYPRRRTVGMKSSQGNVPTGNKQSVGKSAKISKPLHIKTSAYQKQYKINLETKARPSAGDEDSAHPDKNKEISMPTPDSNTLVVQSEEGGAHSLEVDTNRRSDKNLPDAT
Test: PBM E-score (8-mer binding enrichment) (E-score (-0.5 to 0.5)); higher = stronger / more preferred TF binding
Settings: protein concentration: 200 nM; construct: GST-DNA-binding domain
The full ranking holds about 33,000 sequences; the median of “E-score (-0.5 to 0.5)” is about -0.01, and the highest 2% start at about 0.26. The entries come from a sample that favours the highest values as a whole.
// label = true (1) if PBM E-score is not less than 0.2, otherwise false (0)

CTTGTTGC :: false (0)
AGCTGAAC :: false (0)
AAAAAATC :: true (1)
ATTCCACA :: true (1)
TCGTTGCA :: false (0)
ACGTGAAA :: true (1)
AATGGGAT :: false (0)
ATAAACTG :: true (1)
ATAAAGTC :: false (0)
CGCTGAAA :: true (1)
TGCTGAAA :: true (1)
ACAAGGAC :: false (0)
TCCTGAAA :: true (1)
CCGCAGGA :: false (0)
ATAAACTA :: true (1)
AGCTGAAA :: true (1)
ATTGTTTC :: true (1)
AGCTGAAG :: false (0)
